Data origin: patent US20260248894A1

Target: rhIGF-1/rhIGFBP-3 drug product (Homo sapiens, UniProt P05019+P17936, DEL119-195)
Construct: purchased Takeda, Lexington, MA, USA
Sequence (P05019 49-118 limits assumed, stated change not applied): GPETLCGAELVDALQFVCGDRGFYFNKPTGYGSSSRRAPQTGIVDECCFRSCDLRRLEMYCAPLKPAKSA
Sequence (P17936 28-291, stated change not applied): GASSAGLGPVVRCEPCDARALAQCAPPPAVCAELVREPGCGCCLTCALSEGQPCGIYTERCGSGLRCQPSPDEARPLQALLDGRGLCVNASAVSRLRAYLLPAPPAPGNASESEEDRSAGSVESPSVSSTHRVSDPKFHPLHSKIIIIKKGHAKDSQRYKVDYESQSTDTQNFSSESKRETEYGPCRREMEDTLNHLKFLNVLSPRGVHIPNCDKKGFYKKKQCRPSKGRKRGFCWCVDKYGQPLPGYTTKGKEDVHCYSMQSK
Assay: In vitro physical compatibility of test medications mixed with rhIGF-1/rhIGFBP-3 (visual observation, OD320, pH, osmolality)
Format: physicochemical
Where a name gives a salt, the structure may show the parent alone.

| compound | target.under.test | Physical compatibility |
| --- | --- | --- |
| Cl.NCCc1ccc(O)c(O)c1 [Dopamine hydrochloride] | rhIGF-1/rhIGFBP-3 drug product (Homo sapiens, UniProt P05019+P17936, DEL119-195) | No |
| Cn1c(=O)c2c(ncn2C)n(C)c1=O.O=C(O)CC(O)(CC(=O)O)C(=O)O [Caffeine citrate] | rhIGF-1/rhIGFBP-3 drug product (Homo sapiens, UniProt P05019+P17936, DEL119-195) | Yes^a |
| Cc1ncc2n1-c1ccc(Cl)cc1C(c1ccccc1F)=NC2 [Midazolam, Midazolam hydrochloride] | rhIGF-1/rhIGFBP-3 drug product (Homo sapiens, UniProt P05019+P17936, DEL119-195) | Yes |
| CN[C@H](CC(C)C)C(=O)N[C@H]1C(=O)N[C@@H](CC(N)=O)C(=O)N[C@H]2C(=O)N[C@H]3C(=O)N[C@H](C(=O)N[C@H](C(=O)O)c4cc(O)cc(O)c4-c4cc3ccc4O)[C@H](O)c3ccc(c(Cl)c3)Oc3cc2cc(c3O[C@@H]2O[C@H](CO)[C@@H](O)[C@H](O)[C@H]2O[C@H]2C[C@](C)(N)[C@H](O)[C@H](C)O2)Oc2ccc(cc2Cl)[C@H]1O [Vancomycin hydrochloride] | rhIGF-1/rhIGFBP-3 drug product (Homo sapiens, UniProt P05019+P17936, DEL119-195) | Yes |
